Test system: OCI-AML2;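 also: after 48 h exposure read by CellTiter-Glo luminescence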
experiment_description: cell viability relative to vehicle control; higher = less cytotoxic
condition_set: 10 µM; SRSF2 genotype: P95H/wt
Counter-ions that a name gives are not always drawn.
experimental_readout: cell viability (%)
Numeric only. Scale: %

For reference, reported cell viability for C[C@H](NCc1ccc(OCc2cccc(F)c2)cc1)C(N)=O [Safinamide] stands at 104

// `CCC(CC)n1ccc2c(C(=O)NCc3c(C)cc(C)[nH]c3=O)cc(C#N)cc21` : cell viability value = 95

cell viability reported for this molecule `COc1cc(NC(=O)c2ccc(-c3ccc(Cl)cc3)o2)cc(OC)c1` : 97.4

Measured cell viability, `O=C(O)c1cn(C2CC2)c2cc(Cl)c(F)cc2c1=O` : 104

# molecule CC(=O)O[C@]1(C(C)=O)CC[C@H]2[C@@H]3C[C@H](C)C4=CC(=O)C=C[C@]4(C)[C@@]3(F)[C@@H](O)C[C@@]21C [Fluorometholone Acetate] ; its cell viability = 99.5

Entry under test: CC1(C)S[C@@H]2[C@H](NC(=O)[C@H](NC(=O)N3CCNC3=O)c3ccccc3)C(=O)N2[C@H]1C(=O)O [Azlocillin sodium salt] . Its cell viability was 88

Value of measured cell viability for the entry `O=c1ccn([C@@H]2O[C@H](CO)[C@@H](O)[C@H]2O)c(=O)[nH]1` : 78.3

Per the record, `COc1ccc(S(=O)(=O)Nc2cc(-c3c(O)ccc4ccccc34)c(O)c3ccccc23)cc1` has cell viability of 0.37

Form: molecule = `CCCCCCCCCCCCN1CCCCCC1=O` ; cell viability = 70.4

cell viability reported for this molecule `Cc1ncc(NC(=O)c2cccc(C(F)(F)F)c2)cc1-c1cnc(OC2CCOCC2)c(N2CCOCC2)c1` : 30.6

Entry under test: `CC1(C)C=Cc2cc(-c3coc4cc(O)ccc4c3=O)ccc2O1` . Its cell viability was 56.4

Form field cell viability, entry OC[C@H]1OC(O)[C@H](O)[C@@H](O)[C@H]1O (some centres undefined) : 105

What the record says about `CCCCOc1ccc(CC(=O)NO)cc1` : cell viability is 98.1

Data point: `CCc1nc(N)nc(N)c1-c1ccc(Cl)cc1` ; cell viability = 107
